# System: 186277-243-T-J2-PDC complex spheroid growth, % test/control
# assayComment: Anticancer human tumor 186277-243-T-J2-PDC patient-derived colon adenocarcinoma cell line growth inhibition [Asc]
# conditionInfo: compound alone; run of 10/03/2022

| molecule | IC50 |
| --- | --- |
| CNC(C)C(=O)NC1CN(S(=O)(=O)c2cccc(S(=O)(=O)N3CCC4CCC(C(=O)NC(c5ccccc5)c5ccccc5)N4C(=O)C(NC(=O)C(C)NC)C3)c2)CCC2CCC(C(=O)NC(c3ccccc3)c3ccccc3)N2C1=O (stereo unspecified) | > 1000 nM |

###

# System: 186277-243-T-J2-PDC complex spheroid growth, % test/control
# assayComment: Anticancer human tumor 186277-243-T-J2-PDC cell line growth inhibition [Asc];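 note: spheroids exposed to agents for 7 days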
# conditionInfo: curve of compound
pIC50: −log10 of the molar value.

| compound | targetDesc | pIC50 |
| --- | --- | --- |
| CCN1CCN(Cc2ccc(Nc3ncc(F)c(-c4cc(F)c5nc(C)n(C(C)C)c5c4)n3)nc2)CC1 | 186277-243-T-J2-PDC complex spheroid growth, % test/control | < 6.00 |
| O=C(c1cc(Cc2n[nH]c(=O)c3ccccc23)ccc1F)N1CCN(C(=O)C2CC2)CC1 | 186277-243-T-J2-PDC complex spheroid growth, % test/control | < 5.00 |
| Cc1nc(N2CCC3(CC2)COC(C)C3N)c(CO)nc1Sc1ccnc(N)c1Cl (stereo not drawn) | 186277-243-T-J2-PDC complex spheroid growth, % test/control | < 5.52 |

###

Documented viability, T/C across a set of molecules
# System: 186277-243-T-J2-PDC complex spheroid growth, % test/control
# assayComment: Anticancer human tumor 186277-243-T-J2-PDC cell line growth inhibition [Asc];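 note: spheroids exposed to agents for 7 days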;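 for viability, T/C: 100% = DMSO vehicle control wells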
# conditionInfo: second compound 0.1 µM; first compound 3 µM; stronger effect = lower value

| molecule | targetDesc | unit | viability, T/C |
| --- | --- | --- | --- |
| Cc1nc(N2CCC3(CC2)COC(C)C3N)c(CO)nc1Sc1ccnc(N)c1Cl (centres undefined) + CNC(C)C(=O)NC1CN(S(=O)(=O)c2cccc(S(=O)(=O)N3CCC4CCC(C(=O)NC(c5ccccc5)c5ccccc5)N4C(=O)C(NC(=O)C(C)NC)C3)c2)CCC2CCC(C(=O)NC(c3ccccc3)c3ccccc3)N2C1=O | 186277-243-T-J2-PDC complex spheroid growth, % test/control | % | 119 |
| CCN1C(C(=O)NC23CCC(C(=O)O)(CC2)CC3)C(c2cccc(Cl)c2F)C2(C(=O)Nc3cc(Cl)ccc32)C12CCCCC2 (centres undefined) + Cc1c(S(C)(=O)=O)c(-c2cc(F)cc(N3CCN(c4ccc(NS(=O)(=O)c5ccc(NC(CCN6CCC(C(=O)OCCCP(=O)(O)O)CC6)CSc6ccccc6)c(S(=O)(=O)C(F)(F)F)c5)cc4)CC3)c2)c(-c2ccc(Cl)cc2)n1C(C)C | 186277-243-T-J2-PDC complex spheroid growth, % test/control | % | 14 |
| CCN1C(C(=O)NC23CCC(C(=O)O)(CC2)CC3)C(c2cccc(Cl)c2F)C2(C(=O)Nc3cc(Cl)ccc32)C12CCCCC2 (centres undefined) + CNC(C)C(=O)NC1CN(S(=O)(=O)c2cccc(S(=O)(=O)N3CCC4CCC(C(=O)NC(c5ccccc5)c5ccccc5)N4C(=O)C(NC(=O)C(C)NC)C3)c2)CCC2CCC(C(=O)NC(c3ccccc3)c3ccccc3)N2C1=O | 186277-243-T-J2-PDC complex spheroid growth, % test/control | % | 48.2 |
| Cc1nc(N2CCC3(CC2)COC(C)C3N)c(CO)nc1Sc1ccnc(N)c1Cl (centres undefined) + Cc1c(S(C)(=O)=O)c(-c2cc(F)cc(N3CCN(c4ccc(NS(=O)(=O)c5ccc(NC(CCN6CCC(C(=O)OCCCP(=O)(O)O)CC6)CSc6ccccc6)c(S(=O)(=O)C(F)(F)F)c5)cc4)CC3)c2)c(-c2ccc(Cl)cc2)n1C(C)C | 186277-243-T-J2-PDC complex spheroid growth, % test/control | % | 96.1 |

###

# Tested on: 186277-243-T-J2-PDC complex spheroid growth, % test/control
# assayComment: Anticancer human tumor 186277-243-T-J2-PDC cell line growth inhibition [Asc];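 note: spheroids exposed to agents for 7 days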;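 for viability, T/C: 100% = DMSO vehicle control wells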
# conditionInfo: second compound 0.1 µM; first compound 1 µM; stronger effect = lower value
Label fulfilled when viability, T/C is strictly below 9%; otherwise label not fulfilled.

| compound | discreteLabel |
| --- | --- |
| COc1c(OCCCN2CCOCC2)ccc2c3n(c(=NC(=O)c4cnc(N)nc4)nc12)CCN3 + CNC(C)C(=O)NC1CN(S(=O)(=O)c2cccc(S(=O)(=O)N3CCC4CCC(C(=O)NC(c5ccccc5)c5ccccc5)N4C(=O)C(NC(=O)C(C)NC)C3)c2)CCC2CCC(C(=O)NC(c3ccccc3)c3ccccc3)N2C1=O | not fulfilled |
| O=C(c1ccc(F)c(F)c1Nc1ccc(I)cc1F)N1CC(O)([C@@H]2CCCCN2)C1 + Cc1c(S(C)(=O)=O)c(-c2cc(F)cc(N3CCN(c4ccc(NS(=O)(=O)c5ccc(NC(CCN6CCC(C(=O)OCCCP(=O)(O)O)CC6)CSc6ccccc6)c(S(=O)(=O)C(F)(F)F)c5)cc4)CC3)c2)c(-c2ccc(Cl)cc2)n1C(C)C | fulfilled |
| COc1c(OCCCN2CCOCC2)ccc2c3n(c(=NC(=O)c4cnc(N)nc4)nc12)CCN3 + Cc1c(S(C)(=O)=O)c(-c2cc(F)cc(N3CCN(c4ccc(NS(=O)(=O)c5ccc(NC(CCN6CCC(C(=O)OCCCP(=O)(O)O)CC6)CSc6ccccc6)c(S(=O)(=O)C(F)(F)F)c5)cc4)CC3)c2)c(-c2ccc(Cl)cc2)n1C(C)C | fulfilled |
| CCN1CCN(Cc2ccc(Nc3ncc(F)c(-c4cc(F)c5nc(C)n(C(C)C)c5c4)n3)nc2)CC1 + Cc1c(S(C)(=O)=O)c(-c2cc(F)cc(N3CCN(c4ccc(NS(=O)(=O)c5ccc(NC(CCN6CCC(C(=O)OCCCP(=O)(O)O)CC6)CSc6ccccc6)c(S(=O)(=O)C(F)(F)F)c5)cc4)CC3)c2)c(-c2ccc(Cl)cc2)n1C(C)C | not fulfilled |
| C#Cc1c(F)ccc2cc(O)cc(-c3ncc4c(N5CC6CCC(C5)N6)nc(OCC56CCCN5CC(F)C6)nc4c3F)c12 (stereo not drawn) + Cc1c(S(C)(=O)=O)c(-c2cc(F)cc(N3CCN(c4ccc(NS(=O)(=O)c5ccc(NC(CCN6CCC(C(=O)OCCCP(=O)(O)O)CC6)CSc6ccccc6)c(S(=O)(=O)C(F)(F)F)c5)cc4)CC3)c2)c(-c2ccc(Cl)cc2)n1C(C)C | not fulfilled |
| CCN1CCN(Cc2ccc(Nc3ncc(F)c(-c4cc(F)c5nc(C)n(C(C)C)c5c4)n3)nc2)CC1 + CNC(C)C(=O)NC1CN(S(=O)(=O)c2cccc(S(=O)(=O)N3CCC4CCC(C(=O)NC(c5ccccc5)c5ccccc5)N4C(=O)C(NC(=O)C(C)NC)C3)c2)CCC2CCC(C(=O)NC(c3ccccc3)c3ccccc3)N2C1=O | not fulfilled |
| C#Cc1c(F)ccc2cc(O)cc(-c3ncc4c(N5CC6CCC(C5)N6)nc(OCC56CCCN5CC(F)C6)nc4c3F)c12 (stereo not drawn) + CNC(C)C(=O)NC1CN(S(=O)(=O)c2cccc(S(=O)(=O)N3CCC4CCC(C(=O)NC(c5ccccc5)c5ccccc5)N4C(=O)C(NC(=O)C(C)NC)C3)c2)CCC2CCC(C(=O)NC(c3ccccc3)c3ccccc3)N2C1=O | not fulfilled |

###

Measured viability, T/C, listed per entry for reference.
# System: 186277-243-T-J2-PDC complex spheroid growth, % test/control
# assayComment: Anticancer human tumor 186277-243-T-J2-PDC cell line growth inhibition [Asc];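 note: spheroids exposed to agents for 7 days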;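 for viability, T/C: 100% = DMSO vehicle control wells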
# conditionInfo: second compound 0.1 µM; first compound 1 µM; stronger effect = lower value
metricName: viability, T/C (%)

| compound | result |
| --- | --- |
| C=CC(=O)N1CCN(c2nc(=O)n(-c3c(C)ccnc3C(C)C)c3nc(-c4c(O)cccc4F)c(F)cc23)C(C)C1 (stereo not drawn) + Cc1c(S(C)(=O)=O)c(-c2cc(F)cc(N3CCN(c4ccc(NS(=O)(=O)c5ccc(NC(CCN6CCC(C(=O)OCCCP(=O)(O)O)CC6)CSc6ccccc6)c(S(=O)(=O)C(F)(F)F)c5)cc4)CC3)c2)c(-c2ccc(Cl)cc2)n1C(C)C | 108 |
| O=C(c1cc(Cc2n[nH]c(=O)c3ccccc23)ccc1F)N1CCN(C(=O)C2CC2)CC1 + CNC(C)C(=O)NC1CN(S(=O)(=O)c2cccc(S(=O)(=O)N3CCC4CCC(C(=O)NC(c5ccccc5)c5ccccc5)N4C(=O)C(NC(=O)C(C)NC)C3)c2)CCC2CCC(C(=O)NC(c3ccccc3)c3ccccc3)N2C1=O | 123 |
| C=C(F)C(=O)N1CCN(c2nc(OCC3CCCN3C)nc3c2CCN(c2cccc4cccc(Cl)c24)C3)CC1CC#N (stereo not drawn) + CNC(C)C(=O)NC1CN(S(=O)(=O)c2cccc(S(=O)(=O)N3CCC4CCC(C(=O)NC(c5ccccc5)c5ccccc5)N4C(=O)C(NC(=O)C(C)NC)C3)c2)CCC2CCC(C(=O)NC(c3ccccc3)c3ccccc3)N2C1=O | 119 |
